System: Epidermophyton floccosum
EXPERIMENT_NOTES: Antifungal activity against Epidermophyton floccosum after 24 hrs
Format: functional
MIC under 50 µM gets 1.0, anything at or over 50 µM gets 0.0.

CC(C)[C@]1(O)C(=O)C=C2[C@@]3(CC[C@H]4C(C)(C)CCC[C@]24C)[C@@H]2C(=O)[C@@](O)(C(C)C)[C@@H](C4=C2[C@@]2(C)CCCC(C)(C)[C@@H]2CC4)[C@H]31 : 0.0
CC(C)C1=CC=C2C(=CC[C@H]3C(C)(C)CCC[C@]23C)C1=O : 0.0
CC(C)C1=CC=C2C(=C(O)C[C@H]3C(C)(C)CCC[C@]23C)C1=O : 0.0
Clc1ccc(COC(Cn2ccnc2)c2ccc(Cl)cc2Cl)c(Cl)c1 (stereo unspecified) : 1.0
C=C1CC/C=C(\C)C(=O)[C@H](OC(C)=O)[C@@H]2[C@@H]1CC2(C)C : 1.0
